- measurement.target: catalytic domain of human PARP14 (Homo sapiens (Human), UniProt Q460N5)
- Sequence (Q460N5 1611-1801): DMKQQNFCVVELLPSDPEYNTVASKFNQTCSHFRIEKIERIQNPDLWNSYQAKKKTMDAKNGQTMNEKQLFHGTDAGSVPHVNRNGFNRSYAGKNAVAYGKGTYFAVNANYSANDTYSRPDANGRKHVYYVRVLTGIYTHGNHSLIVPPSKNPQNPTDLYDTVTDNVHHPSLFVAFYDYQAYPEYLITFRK
- method.notes: Enzymatic assay for inhibition of PARP14 (DELFIA, auto-modification with biotin-NAD)
- particulars: auto-modification of PARP14 by biotin-NAD, 50 nM PARP14, 3 μM biotin-NAD
- Method: An N-terminal His-TEV fusion tag was used to purify the protein from cell lysates. The His-TEV tag was left on the protein for use in the enzymatic assay. Enzymatic inhibition of PARP14 was measured using a dissociation-enhanced lanthanide fluorescence immunoassay (DELFIA) monitoring the auto-modification of PARP14 by biotinylated nicotinamide adenine dinucleotide (biotin-NAD). […]
Counter-ions that a name gives are not always drawn.
measurement.type: IC50

| compound | measured |
| --- | --- |
| O=c1[nH]c(CS[C@H]2CC[C@@H](O)CC2)nc2cc(Nc3cccnc3)ccc12 | < 1 µM |
| O=c1[nH]c(CSC2CCNCC2)nc2cc(NCC3CC3)cc(F)c12 | < 1 µM |
| CC(=O)N1CCC(SCc2nc3cc(N[C@@H]4CCCN(S(C)(=O)=O)C4)ccc3c(=O)[nH]2)CC1 | < 1 µM |
| Cc1cccc2c(=O)[nH]c(CS[C@H]3CC[C@H](O)CC3)nc12 | < 1 µM |
| CC(=O)N1CCC(COc2cc(F)c3c(=O)[nH]c(CS[C@H]4CC[C@@H](O)CC4)nc3c2)CC1 | < 1 µM |
| Cc1cccc2c(=O)[nH]c(CS[C@H]3CC[C@@H](CO)OC3)nc12 (relative stereo) | 1 to 10 µM |
| O=c1[nH]c(CSC2CCNCC2)nc2cc(NC3CCCC3)c(F)c(F)c12 [Example 232, Hydrochloride] | < 1 µM |
| CC(C)(COc1cc(F)c2c(=O)[nH]c(CSC3CCOCC3)nc2c1)C(F)(F)F | < 1 µM |
| Cc1cccc2c(=O)[nH]c(CS[C@H]3CC[C@@H](CN)CC3)nc12 [Example 65, Trifluoroacetate] | 1 to 10 µM |
| CNC(=O)c1ccc2c(=O)[nH]c(CSC3CCOCC3)nc2c1 | > 10 µM |
| CC(=O)N1CCC(COc2cc(Cl)c3c(=O)[nH]c(CSC4CCOCC4)nc3c2)CC1 | < 1 µM |
| O=c1[nH]c(CS[C@@H]2CCNC[C@H]2F)nc2cc(OCC3CC3)cc(F)c12 (relative stereo) [Example 297, hydrochloride] | 1 to 10 µM |
| CC(=O)N[C@H]1CC[C@H](SCc2nc3cc(NC4CCC4)c(F)c(F)c3c(=O)[nH]2)CC1 | < 1 µM |
| Cc1cccc2c(=O)[nH]c(CSC3CNC3)nc12 [Example 25, Trifluoroacetate] | > 10 µM |
| CN1C[C@H](COc2cc(F)c3c(=O)[nH]c(CSC4CCOCC4)nc3c2)[C@H](F)C1 (relative stereo) | < 1 µM |
| Cc1cccc2c(=O)[nH]c(CSC3CC(CN)C3)nc12 (centres unmarked) | 1 to 10 µM |
| Cc1cccc2c(=O)[nH]c(CSC3CCN(Cc4cncn4Cc4ccccc4)CC3)nc12 [Example 153, trifluoroacetate] | < 1 µM |
| Cc1cccc2c(=O)[nH]c(CSC3CCCNC3)nc12 (centres unmarked) [Example 48, Hydrochloride] | 1 to 10 µM |
| O=c1[nH]c(CSC2CCNCC2)nc2cc(OCC3CCC3)cc(F)c12 [Example 280, 2,2,2-trifluoroacetate] | < 1 µM |
| COc1cc(NC2CCCC2)cc2nc(CSC3CCOCC3)[nH]c(=O)c12 | > 10 µM |
| O=c1[nH]c(CSC2CCN(C3CS(=O)(=O)C3)CC2)nc2cc(NC3CCCC3)cc(F)c12 | < 1 µM |
| N#CCN1CCC(SCc2nc3cc(NC4CCCC4)cc(F)c3c(=O)[nH]2)CC1 | < 1 µM |
| O=c1[nH]c(CSC2CCOCC2)nc2ccncc12 | > 10 µM |
| CN1CC[C@@H](COc2cc(F)c3c(=O)[nH]c(CSC4CCOCC4)nc3c2)[C@@H](F)C1 (relative stereo) | < 1 µM |
| Cc1cccc2c(=O)[nH]c(CS[C@H]3CCC[C@H](CO)C3)nc12 (relative stereo) | 1 to 10 µM |
| Cc1cccc2c(=O)[nH]c(CSC3CCC(CN)C3)nc12 (centres unmarked) | 1 to 10 µM |

Reference for the values: patent US10562891B2
